System: L1210 leukemia ip in BDF1 mice, survival T/C
Assay: NCI In Vivo Anticancer Drug Screen. Data for tumor model L1210 Leukemia (intraperitoneal) in B6D2F1 (BDF1) mice
Settings: endpoint: mean survival time; dose: 200.0 mg/kg/injection; schedule: Q01DX009 (ip); vehicle: saline sonified; higher = longer survival
Inconclusive results and toxic doses are left out.
measuredMetric: T/C

# molecule, measuredMetric, reportedValue
records = [
    ("COc1cc2ccc3c(c2cc1OC)CN1CCc2cc4c(cc2C1C3)OCO4 (centres undefined)", "T/C", "109 % of control"),
    ("O=C(CCCc1ccccc1)N1CCOCC1", "T/C", "96 % of control"),
    ("NC(=O)c1ccccc1Cl", "T/C", "89 % of control"),
    ("Cn1cc(Cl)nc1CO", "T/C", "102 % of control"),
]

The reported measurements were obtained from PubChem BioAssay AID248.
